Target: Proto-oncogene tyrosine-protein kinase Src [84-145] (UniProt P12931)
Observation Type: Kd

Incoming: Form field: reported Kd of CCOC(=O)c1c(CNC(=N)N)n(C)c2cc(C3CC4CCC3C4)ccc12 (stereo unspecified)
Outgoing: < 1000 nM

Source listed as BindingDB's records for patent US20250289812.
